Where these numbers come from: the supplement of paper PMC7877785

- assay_info: self-splicing fitness, log relative to wild type (ln ratio); higher = more splicing; Tetrahymena group I intron in knt gene, E. coli kanamycin selection, DiMSum; sequences stand for … in CUCUCU…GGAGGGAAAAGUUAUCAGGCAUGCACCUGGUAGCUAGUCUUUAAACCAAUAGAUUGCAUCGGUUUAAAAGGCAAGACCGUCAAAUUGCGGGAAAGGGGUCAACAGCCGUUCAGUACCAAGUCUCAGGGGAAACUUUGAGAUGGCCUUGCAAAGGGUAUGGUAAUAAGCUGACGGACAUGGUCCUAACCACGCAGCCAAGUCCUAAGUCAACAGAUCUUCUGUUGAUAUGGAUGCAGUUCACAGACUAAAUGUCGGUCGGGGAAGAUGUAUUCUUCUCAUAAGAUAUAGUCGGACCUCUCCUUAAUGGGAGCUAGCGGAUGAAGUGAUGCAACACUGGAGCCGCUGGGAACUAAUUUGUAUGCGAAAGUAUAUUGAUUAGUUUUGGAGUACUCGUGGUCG;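 further: selection with 25 µg/mL kanamycin versus none on LB agar overnight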
- setup_conditions: 30 °C
Collected self-splicing fitness (ln) values appear next to each entry.
test_readout: self-splicing fitness (ln)

# sequence_code, test_readout, endpoint_result
rows = [
    ("GAAGAGCAAUAUUACGGGGC", "self-splicing fitness (ln)", -3.46),
    ("UUAAAGCAAUAUUACGCGCG", "self-splicing fitness (ln)", -0.058),
    ("CUGCAGCAAUAUUACGGAGU", "self-splicing fitness (ln)", -3.05),
    ("ACGGAGCAAUAUUACGGGUG", "self-splicing fitness (ln)", -3.61),
    ("AGAAAGCAAUAUUACGGCUU", "self-splicing fitness (ln)", -1.26),
    ("GAUUAGCAAUAUUACGUAAU", "self-splicing fitness (ln)", -3.06),
    ("AGAAAGCAAUAUUACGACCC", "self-splicing fitness (ln)", 0.302),
    ("GGAGAGCAAUAUUACGACGG", "self-splicing fitness (ln)", -2.35),
    ("AUUUAGCAAUAUUACGGAAC", "self-splicing fitness (ln)", -3.03),
    ("ACAAAGCAAUAUUACGAGGG", "self-splicing fitness (ln)", -3.39),
    ("CAUGAGCAAUAUUACGAGAA", "self-splicing fitness (ln)", -0.549),
    ("UACAAGCAAUAUUACGGACC", "self-splicing fitness (ln)", -2.74),
    ("UCGGAGCAAUAUUACGUUCU", "self-splicing fitness (ln)", -3.17),
    ("CGUAAGCAAUAUUACGCUUG", "self-splicing fitness (ln)", -3.54),
    ("ACUGAGCAAUAUUACGUGAC", "self-splicing fitness (ln)", -3.23),
    ("AGACAGCAAUAUUACGAUUU", "self-splicing fitness (ln)", 0.0877),
]

###

Collected self-splicing fitness (ln) values appear next to each entry.
- assay_info: self-splicing fitness, log relative to wild type (ln ratio); higher = more splicing; Tetrahymena group I intron in knt gene, E. coli kanamycin selection, DiMSum; sequences stand for … in CUCUCU…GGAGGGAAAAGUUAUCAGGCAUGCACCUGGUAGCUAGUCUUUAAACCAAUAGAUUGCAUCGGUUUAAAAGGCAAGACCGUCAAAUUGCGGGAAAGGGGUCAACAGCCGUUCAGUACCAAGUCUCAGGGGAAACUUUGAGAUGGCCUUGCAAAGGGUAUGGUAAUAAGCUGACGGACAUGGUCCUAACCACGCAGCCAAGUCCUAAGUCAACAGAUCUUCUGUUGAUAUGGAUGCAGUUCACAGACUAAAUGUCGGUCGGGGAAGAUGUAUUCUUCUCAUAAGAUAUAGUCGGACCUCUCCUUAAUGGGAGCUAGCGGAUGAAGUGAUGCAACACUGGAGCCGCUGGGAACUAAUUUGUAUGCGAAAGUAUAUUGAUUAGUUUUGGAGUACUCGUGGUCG
- setup_conditions: 37 °C

# sequence_code, self-splicing fitness (ln)
records = [
    ("GGAUAGCAAUAUUACGUACU", 0.0901),
    ("AGUUAGCAAUAUUACGUGGU", -3.35),
    ("CUGGAGCAAUAUUACGAGCU", -1.66),
    ("AUCGAGCAAUAUUACGCCAC", -2.54),
    ("UUGUAGCAAUAUUACGGUGU", -2.3),
    ("ACAUAGCAAUAUUACGUCUA", -1.1),
    ("GCUAAGCAAUAUUACGAGAG", -1.27),
    ("GAGUAGCAAUAUUACGUUGG", -3.3),
    ("UAACAGCAAUAUUACGCCGU", -1.94),
    ("AUAUAGCAAUAUUACGCUCU", -0.594),
    ("CAAGAGCAAUAUUACGUCUG", -0.511),
    ("CAACAGCAAUAUUACGAGCA", -1.01),
    ("CUAUAGCAAUAUUACGUGGA", -2.4),
    ("UCCAAGCAAUAUUACGCCGG", -0.578),
    ("GAACAGCAAUAUUACGCCUC", -1.89),
    ("UGUUAGCAAUAUUACGCCAA", -1.4),
]
